The values you see were collected from the supplement of paper PMC10065799.

tested on: AncSZ; test: phosphorylation enrichment, bacterial display (enrichment ratio); higher = better substrate or ligand; peptides without Tyr show the background
phosphorylation enrichment values for the sequences below.

residues	phosphorylation enrichment
ESFCLYPPVPQ [CYP4B1_Y377_R375C]	0.874
TIAIRYSHSRR [ACOXL_Y260]	0.746
ITSLLYHVVGW [GBA_Y412_N409S]	1.32
SSQTIYQRVEG [TFR2_Y23_V22I]	0.756
SIKGKYVTALY [KCNH2_Y611_D609G]	0.498
IDPFIYTPFGS [CYP3A4_Y432_YF]	0.927
GCVRMYELVHR [GLE1_Y135]	1.07
YGMSTYITRED [FNDC3B_Y180]	0.972
EPYEVYRIVPE [IRF8_Y110_K108E]	3.39
VLNHAYENLTR [SYNE2_Y3255_D3253H]	0.565
GFPVHYTDMSN [DNMT3B_Y815_V818M]	0.947
EWKNNCPRLRE [OPA1_Y582_Y582C]	0.9
QGCSIYKDFFR [PLA2G2D_Y82_YF]	1.44
RLSVDYGKKSK [TUBA3E_Y161_S162G]	0.613
TNLVPYPCIHF [TUBA1A_Y262_R264C]	0.975
GDPVQYNRTTD [MLPH_Y454]	0.705
FPKVRYHWLVL [APTX_Y214_A212V_YF]	0.994
ENELTYYCCKK [CD59_Y86]	1.57
EAIMTYVSSFF [ACTN4_Y260_K255E_YF]	1.02
LSDGPYSNPFE [EPOR_Y485_YF]	1.47
SWDKRYCEAGF [ITGA2B_Y197]	0.892
NLNGKYYKPRA [ANGPTL3_Y417_N418Y]	0.474
DLAAQYTTVGH [SGSH_Y240_R245H]	0.854
SCRENYSDSEE [LEMD3_Y258]	1.07

====

Here, each record is paired with measured SH2 binding enrichment data.
biological target: c-Src SH2; assay: SH2 binding enrichment of the phosphorylated peptide, bacterial display (enrichment ratio); higher = better substrate or ligand; peptides without Tyr show the background;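 also: peptide library displayed on the E. coli surface as eCPX fusions, selected cells deep-sequenced, score is each peptide's frequency after selection divided by its frequency in the input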

residues	SH2 binding enrichment
PYVYYYSYLLK [PTEN_Y178_R173P]	0.669
SSWKLYPRMLR [HAO1_Y50_R46S]	0.516
TLNFCYQQVKS [PTK2_Y148_F147C]	0.786
DPLLTYWFPPK [LMNA_Y481_R482W]	0.67
PGVDIYVSPNM [PADI3_Y51_I52V]	0.524
EVVGRYSVHNA [MLH1_Y183]	0.42
QNKEDYDGLKE [GSTO1_Y139_A140D]	0.765

====

target: FGFR1 (UniProt P11362); assay: phosphorylation enrichment, bacterial display (enrichment ratio); higher = better substrate or ligand; peptides without Tyr show the background
Sequence (P11362 whole entry, looked up): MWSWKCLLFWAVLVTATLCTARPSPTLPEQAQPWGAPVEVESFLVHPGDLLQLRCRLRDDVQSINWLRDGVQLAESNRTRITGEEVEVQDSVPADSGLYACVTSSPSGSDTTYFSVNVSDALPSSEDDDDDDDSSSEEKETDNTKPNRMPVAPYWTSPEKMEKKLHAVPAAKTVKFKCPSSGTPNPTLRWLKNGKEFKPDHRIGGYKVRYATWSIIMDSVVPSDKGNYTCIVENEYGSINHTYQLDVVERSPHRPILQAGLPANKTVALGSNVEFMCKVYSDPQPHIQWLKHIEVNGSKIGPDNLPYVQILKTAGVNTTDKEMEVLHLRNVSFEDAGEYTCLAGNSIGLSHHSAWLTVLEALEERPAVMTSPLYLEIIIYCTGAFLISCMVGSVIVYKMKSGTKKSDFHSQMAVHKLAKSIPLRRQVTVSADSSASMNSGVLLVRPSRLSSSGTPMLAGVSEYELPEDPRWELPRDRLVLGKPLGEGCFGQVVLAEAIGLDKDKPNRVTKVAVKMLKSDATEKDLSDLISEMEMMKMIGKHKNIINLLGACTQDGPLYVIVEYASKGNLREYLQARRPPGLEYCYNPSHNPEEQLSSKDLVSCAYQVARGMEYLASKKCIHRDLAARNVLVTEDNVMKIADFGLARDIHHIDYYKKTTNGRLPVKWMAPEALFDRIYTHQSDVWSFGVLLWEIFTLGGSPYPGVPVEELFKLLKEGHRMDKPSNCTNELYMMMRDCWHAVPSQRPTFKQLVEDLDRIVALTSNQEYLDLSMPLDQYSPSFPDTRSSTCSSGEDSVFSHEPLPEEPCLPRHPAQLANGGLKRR
measure: phosphorylation enrichment

residues	system.name	meas.value
PSRKDYETFQS [CTNND2_Y1154_P1159S_YF]	FGFR1 (UniProt P11362)	0.769
QNTGDYCDLYG [PTPN11_Y62_Y63C]	FGFR1 (UniProt P11362)	5.87
IENKLYGMSDS [RET_Y1062_P1067S]	FGFR1 (UniProt P11362)	0.484
LKGQVYILGWE [ASS1_Y359_R363W]	FGFR1 (UniProt P11362)	0.544
FPKVRYHWLVL [APTX_Y214_A212V_YF]	FGFR1 (UniProt P11362)	0.428
RRKRAYVEIEY [MAK16_Y282_Q277R]	FGFR1 (UniProt P11362)	0.731
QSKGIYFVQLE [MGAT4B_Y262_YF]	FGFR1 (UniProt P11362)	1.09
TSYSGYRCHRH [NKAPL_Y94_Y96C]	FGFR1 (UniProt P11362)	0.63
AFGEVYEGQVS [ALK_Y1131]	FGFR1 (UniProt P11362)	0.695
LQTYHYHGHSM [PDHA1_Y289_R288H]	FGFR1 (UniProt P11362)	1.16
ADLTEYLSTHF [UQCRC1_Y219_YF]	FGFR1 (UniProt P11362)	0.699
YGMSTYITRED [FNDC3B_Y180]	FGFR1 (UniProt P11362)	0.514
KENITYMKREQ [L1TD1_Y24]	FGFR1 (UniProt P11362)	0.462
NTGYYYDLYGG [PTPN11_Y63_D61Y]	FGFR1 (UniProt P11362)	13.9
MCTVDYLLRLQ [RYR1_Y3921_I3916M]	FGFR1 (UniProt P11362)	0.526
KINKMYSDHAM	FGFR1 (UniProt P11362)	0.315
PIPAAYNRYDQ [CDC73_Y290]	FGFR1 (UniProt P11362)	0.541
SAEEDYIADAK [KCNT1_Y876_M877I]	FGFR1 (UniProt P11362)	0.617
QYKGKYLAKHN [CASK_Y712_D710G]	FGFR1 (UniProt P11362)	1.01
EEESCYILHSS [PATJ_Y783]	FGFR1 (UniProt P11362)	0.621
WISNRSLDFSS [PRPH2_Y184_Y184S]	FGFR1 (UniProt P11362)	0.788
